# TARGET UNDER TEST: Maltase Glucoamylase (MGA) (Homo sapiens, UniProt O43451)
# Sequence (O43451 356-737 limits assumed): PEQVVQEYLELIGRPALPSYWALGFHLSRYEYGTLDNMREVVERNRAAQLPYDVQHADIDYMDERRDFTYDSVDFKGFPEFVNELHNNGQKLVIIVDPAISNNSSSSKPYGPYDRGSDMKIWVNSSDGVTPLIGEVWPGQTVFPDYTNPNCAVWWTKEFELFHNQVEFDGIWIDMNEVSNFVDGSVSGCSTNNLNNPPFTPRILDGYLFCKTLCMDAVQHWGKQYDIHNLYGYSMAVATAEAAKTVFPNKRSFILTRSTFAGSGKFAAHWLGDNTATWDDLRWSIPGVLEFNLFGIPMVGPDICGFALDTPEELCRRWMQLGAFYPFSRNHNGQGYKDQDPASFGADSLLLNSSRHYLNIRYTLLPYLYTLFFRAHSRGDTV
# EXPERIMENT NOTES: MGA activity in extracts of COS cells transfected with MGA5′ (maltase subunit) construct, maltose hydrolysis, glucose oxidase colorimetric assay
# Type: biochemical
# Parameters: COS cells transfected with MGA5′ (maltase subunit clone 10) construct were used; expressed in transfected cells; host or cells: COS cells
pIC50: −log10 of the molar value.

{"columns": ["COMPOUND", "pIC50"],
 "data": [
  ["O=S(=O)([O-])OC(CO)C(O)C[Se+]1CC(O)C(O)C1CO (stereo not shown)", 6.70]
]}

----------
# TARGET UNDER TEST: porcine pancreatic α-amylase (PPA) (Sus scrofa)
# Construct: purchased Sigma
# Sequence (P00690 16-511): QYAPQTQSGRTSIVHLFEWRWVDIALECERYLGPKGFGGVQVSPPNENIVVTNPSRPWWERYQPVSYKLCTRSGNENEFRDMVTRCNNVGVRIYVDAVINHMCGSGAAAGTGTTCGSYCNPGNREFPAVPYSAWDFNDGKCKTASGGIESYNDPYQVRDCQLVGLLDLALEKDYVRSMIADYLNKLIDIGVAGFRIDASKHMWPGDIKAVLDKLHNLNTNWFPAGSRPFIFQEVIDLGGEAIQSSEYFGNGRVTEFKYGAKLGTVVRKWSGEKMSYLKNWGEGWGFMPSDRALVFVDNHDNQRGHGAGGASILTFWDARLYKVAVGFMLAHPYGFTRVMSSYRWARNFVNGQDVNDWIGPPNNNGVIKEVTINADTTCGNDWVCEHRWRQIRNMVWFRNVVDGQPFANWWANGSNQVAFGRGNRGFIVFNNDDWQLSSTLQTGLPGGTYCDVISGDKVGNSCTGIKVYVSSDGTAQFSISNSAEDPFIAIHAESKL
# EXPERIMENT NOTES: Inhibition of porcine pancreatic α-amylase activity towards DP17 amylose
# Assay type: biochemical
# ASSAY CONTEXT: read-out: Ki PPA (Porcine pancreatic α-amylase)
Recorded Ki, one value per entry.

{"columns": ["COMPOUND", "TARGET UNDER TEST", "Ki"],
 "data": [
  ["O=S(=O)(O)O[C@@H](CO)[C@H](O)CN1C[C@H](O)[C@@H](O)[C@H]1CO", "porcine pancreatic α-amylase (PPA) (Sus scrofa)", "> 5 mM"],
  ["O=S(=O)([O-])O[C@@H](CO)[C@H](O)C[S@+]1C[C@@H](O)[C@H](O)[C@H]1CO", "porcine pancreatic α-amylase (PPA) (Sus scrofa)", "0.01 mM"],
  ["O=S(=O)([O-])O[C@H](CO)[C@@H](O)C[S@@+]1C[C@H](O)[C@@H](O)[C@@H]1CO", "porcine pancreatic α-amylase (PPA) (Sus scrofa)", "> 5 mM"],
  ["O=S(=O)(O)O[C@@H](CO)[C@H](O)CN1C[C@@H](O)[C@H](O)[C@H]1CO", "porcine pancreatic α-amylase (PPA) (Sus scrofa)", "> 5 mM"],
  ["O=S(=O)([O-])O[C@@H](CO)[C@H](O)C[S@+]1C[C@H](O)[C@@H](O)[C@H]1CO", "porcine pancreatic α-amylase (PPA) (Sus scrofa)", "0.052 mM"],
  ["O=S(=O)(O)O[C@H](CO)[C@@H](O)CN1C[C@H](O)[C@@H](O)[C@@H]1CO", "porcine pancreatic α-amylase (PPA) (Sus scrofa)", "> 5 mM"],
  ["OC1C[S+]2CCCC2[C@@H](O)C1O (some centres unmarked)", "porcine pancreatic α-amylase (PPA) (Sus scrofa)", "> 5 mM"],
  ["O=S(=O)([O-])O[C@H](CO)[C@@H](O)C[S@+]1C[C@@H](O)[C@H](O)[C@H]1CO", "porcine pancreatic α-amylase (PPA) (Sus scrofa)", "> 5 mM"]
]}
